Listing: LSA EC50 (luciferase reporter assay, SW620-rLuc-KRAS cells, 72 h) of selected binders
# experimental system: human CD71 on cells (SKBR3; SW620-rLuc-KRAS) (human, UniProt P02786 1-760)
# Sequence (P02786 whole entry): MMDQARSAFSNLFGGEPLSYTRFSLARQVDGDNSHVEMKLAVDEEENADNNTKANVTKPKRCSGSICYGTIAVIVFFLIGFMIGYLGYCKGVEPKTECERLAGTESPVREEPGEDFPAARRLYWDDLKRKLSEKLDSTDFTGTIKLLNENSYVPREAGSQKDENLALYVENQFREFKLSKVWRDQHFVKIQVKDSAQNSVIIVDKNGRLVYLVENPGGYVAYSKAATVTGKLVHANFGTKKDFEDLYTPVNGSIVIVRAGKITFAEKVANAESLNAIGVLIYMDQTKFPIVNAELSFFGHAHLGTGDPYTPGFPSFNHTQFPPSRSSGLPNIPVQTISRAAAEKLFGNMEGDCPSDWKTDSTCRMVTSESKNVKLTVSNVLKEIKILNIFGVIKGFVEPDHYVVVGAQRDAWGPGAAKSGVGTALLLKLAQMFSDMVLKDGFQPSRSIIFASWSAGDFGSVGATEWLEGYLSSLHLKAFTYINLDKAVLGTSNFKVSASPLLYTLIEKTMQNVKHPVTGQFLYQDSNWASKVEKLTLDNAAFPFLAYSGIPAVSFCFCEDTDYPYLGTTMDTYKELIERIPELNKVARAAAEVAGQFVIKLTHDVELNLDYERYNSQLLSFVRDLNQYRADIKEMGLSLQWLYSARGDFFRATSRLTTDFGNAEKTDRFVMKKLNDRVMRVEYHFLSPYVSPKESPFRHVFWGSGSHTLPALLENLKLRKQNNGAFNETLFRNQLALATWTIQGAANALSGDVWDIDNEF
# assay notes: cell-based or functional assay
Your answer should be a plain number; it is taken to be in nM.

CD71-binding FN3 domain of SEQ ID NO: 508 conjugated to KRAS2 siRNA (designed binder, conjugated to KRAS2 tool siRNA; site and linker not stated) MLPAPKNLVVSRVTEDSARLSWTAPDAAFDSFFIGYLEPQPPGEAITLSVPGSERSYDLTGLKPGTEYNVTIQGVKGGFPSEPLIAIFTT    0.6

Specify reported LSA EC50 (luciferase reporter assay, SW620-rLuc-KRAS cells, 72 h) for the binder shown: CD71-binding FN3 domain of SEQ ID NO: 516 conjugated to KRAS2 siRNA (designed binder, conjugated to KRAS2 tool siRNA; site and linker not stated) MLPAPKNLVVSRVTEDSARLSWTAPDAAFDSFFIGYLEPQPPGEAISLWVPGSERSYDLTGLKPGTEYNVTIQGVKGGFPSSPLVAYFTT
0.6

Specify reported LSA EC50 (luciferase reporter assay, SW620-rLuc-KRAS cells, 72 h) for the binder shown: CD71-binding FN3 domain of SEQ ID NO: 373 conjugated to KRAS2 siRNA (designed binder, conjugated to KRAS2 tool siRNA; site and linker not stated) MLPAPKNLVVSRVTEDSARLSWTAPDAAFDSFFIGYLEPQPPGEAISLFVPGSERSYDLTGLKPGTEYNVTIQGVKGGFPSDPLVASFTT
0.15

Specify reported LSA EC50 (luciferase reporter assay, SW620-rLuc-KRAS cells, 72 h) for the binder shown: CD71-binding FN3 domain of SEQ ID NO: 496 conjugated to KRAS2 siRNA (designed binder, conjugated to KRAS2 tool siRNA; site and linker not stated) MLPAPKNLVVSRVTEDSARLSWTAPDAAFDSFFIGYLEPQPPGEAIILWVPGSERSYDLTGLKPGTEYNVTIQGVKGGFPSVPLIAQFTT
0.22
